# TESTED_TARGET: T1, pm3 (Y17 sulfated; Y15 and Y16 not sulfated)
# T1 construct: also called sulfated CCR8 N-terminal peptide pm3
# T1 sequence (peptide, as listed by the source): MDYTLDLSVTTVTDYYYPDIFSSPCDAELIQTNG
# ASSAY_NOTES: ELISA on coated peptide [cont.]

# BINDER, binding result
rows = [
    ("anti-CCR8 mAb 1-22 (antibody, human IgG1, kappa, V domains shown, Humanized mAb, human IgG1 / kappa) VH: EVQLLESGGGLVQPGGSLRLSCAASGFTFNAYAMNWVRQAPGKGLEWVARIRSKSNDYATYYGDSVKGRFTISRDNSKNTLYLQMNSLRAEDTAVYYCVRGREAYYRYDGGYYAMDVWGQGTTVTVSS VL: DIVMTQSPLSLPVTPGEPASISCRSSKSLLHSNGNTYLYWFLQKPGQSPQLLIYRVSNLASGVPDRFSGSGSGTDFTLKISRVEAEDVGVYYCMQHREYPFTFGQGTKLEIKR", "binds"),
    ("anti-CCR8 mAb 1-5 (antibody, V domains shown, Murine hybridoma mAb) VH: QVQLKESGPGLVAPSQSLSITCTVSGLSMNDYVVTWIRQPPGKGLEWLGVIWGGGNTYYNSDLKSRLSITKDNSKSQVFFKMSSLQTDDTAVYYCARRHRDYALDYWGQGISVTVSS VL: DVVMTQTPLSLPVSLGDQASISCRSSQSLVYSNGNTYLHWYLQKPGQSPKLLIYKVSNRFSGVPDRFSGSGSGTDFTLKISRVEAEDLGVYFCSQSTYVPPTFGGGTKLEIK", "binds"),
]
